target: Alkaline phosphatase, tissue-nonspecific isozyme (Homo sapiens, UniProt P05186); experiment: human TNAP enzyme inhibitors, SAR follow-up, biochemical, luminescent, dose response (AID 1056)
Activity calls are given as the source filed them.
Permitted responses: true = active, false = inactive

Some solved cases for reference:
compound	labelValue
COc1ccc(S(=O)(=O)Nc2cccnc2)cc1OC	false
Cc1ccc(-c2cc(C(=O)O)[nH]n2)cc1	true
CCOC(=O)NC1(C(Cl)(Cl)Cl)Oc2ccc(Cl)cc2O1 (centres undefined)	false

Prompt: Query: recorded result category for O=C(NCc1ccccc1)c1cccc(-n2sc3ccccc3c2=O)c1 in this test
Completion: false

* * *

This section presents compounds with their documented CC50 values.
test: HEp-2 cell cytotoxicity, dose response, cytotoxicity control for RSV inhibitor project, HTS (AID 2410); type: functional; conditions: human respiratory syncytial virus
Calls of active or inactive are those of the source.

Examples with their reported CC50 follow.
compound	CC50
C=CCn1c(SCc2cc(=O)n3ccsc3n2)nc2scc(C3CC3)c2c1=O	33.1 µM (active)
CCc1nc2ccccc2nc1O	28.8 µM (active)
O=C(Nc1cccc(-c2csc(Nc3ccc(Cl)cc3)n2)c1)c1ccccc1	10.3 µM (active)

Prompt: Bench note: what CC50 did CC1N(C)c2cc(NC(=O)c3ccco3)c(P(=O)(Nc3ccc([N+](=O)[O-])cc3)N3CCOCC3)cc2C1(C)C (configuration not stated) show?
Completion: 18 µM (active)

Prompt: Do the same for Cc1cccn2c(=O)c(/C=C(\C#N)C(=O)NCc3ccco3)c(N3CCCCCC3)nc12 please
Completion: 22 µM (active)

Prompt: Note, next up: FC(F)(F)c1ccccc1/C=N/n1c(S)nnc1COc1ccccc1
Completion: 32.1 µM (active)

Prompt: Field entry: CCC1CCCCN1c1nc2c(C=O)c(C)nn2c2ccccc12 (configuration not stated)
Completion: 20.5 µM (active)

* * *

biological target: Short transient receptor potential channel 4 (Mus musculus, UniProt Q9QUQ5); test: mouse TRPC4 channel inhibitors, dose response, cell-based, HEK293 TRPC4/mu-opioid, Fluo-4 calcium (AID 434942); format: functional;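 further: potency of inhibitors blocking the TRPC4 calcium response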
The source made the active and inactive calls.
Reported EC50 values for the following molecules.

molecule	EC50
CCOC(=O)C1(CCc2ccccc2)CCN(Cc2cccc3c2OCO3)CC1	0.668 µM (active)
NC1=NC2=C(CCCC2)C2(CCCCC2)S1	1.19 µM (active)
Cc1cccc(Cn2c(C(C)(C)C)cc3cccnc32)c1	0.531 µM (active)

Prompt: Please give the measured EC50 for this molecule: CN(C)C(CNC(=O)c1ccc2c(c1)S(=O)(=O)c1ccccc1C2=O)c1ccco1 (configuration not stated)
Completion: 4.73 µM (active)

Prompt: Next record, please: Cc1c(N(C)S(=O)(=O)c2cc(C(=O)NCC3CCCO3)ccc2Cl)c(=O)n(-c2ccccc2)n1C (configuration not stated)
Completion: 1.88 µM (active)

Prompt: // repeat for CNCc1c(OCc2ccccc2)ccc2ccccc12 and report
Completion: 3.76 µM (active)

Prompt: Item: CCOC(=O)C1(Cc2cccc(OC)c2)CCN(Cc2ccc(OC)c(O)c2)CC1
Completion: 0.944 µM (active)

* * *

biological target: Corticotropin-releasing factor receptor 2/Corticotropin-releasing factor-binding protein (Homo sapiens, UniProt P24387+Q13324); assay: activators of CRF receptor 2 with binding protein – uHTS hits, confirmation (AID 602473); assay type: functional; details: read-out: EC50_Mean
Calls of active or inactive are those of the source.
Field 'call' accepts 1 (yes) (active), 0 (no) (inactive)

Take a look at these entries with their results.
compound	labelValue
C/[N+]([O-])=C\C1C(=O)CC(C)(C)CC1=O	0 (no)
O=C(Cc1ccc(-n2cccc2)cc1)N1CCN(c2ccccc2F)CC1	0 (no)
COc1ccc(S(=O)(=O)N(CC(C)C)C2CCS(=O)(=O)C2)cc1OC (stereo not given)	0 (no)
CCCC1=NN2C(=N)/C(=C\c3cc(C)n(-c4cc(C)cc(C)c4)c3C)C(=O)N=C2S1	1 (yes)
O=C1Nc2ccccc2N(O)N1c1cc(-c2cccc(Cl)c2)no1	1 (yes)
O=C(COc1ccc2ccccc2c1)N1CCN(C(=O)c2ccc([N+](=O)[O-])cc2)CC1	0 (no)
CCc1nnc(NS(=O)(=O)c2ccc(NC(=S)NC(=O)/C=C/c3ccccc3)cc2)s1	0 (no)
CN1C(=O)NC(c2ccccc2)(C(F)(F)F)S/C1=C(/C#N)c1nnc(N2CCOCC2)n1-c1ccccc1 (stereo not given)	0 (no)

Prompt: Per the assay record, what outcome was assigned to CN(Cc1ccccc1)S(=O)(=O)c1nnc(NC(=O)c2ccc(F)cc2)s1 ?
Completion: 0 (no)

Prompt: Please give the result for COc1ccc(C(=O)NNC(=S)NC(=O)c2ccc(OC)cc2)cc1 too.
Completion: 1 (yes)

* * *

Below, each entry is listed with its recorded IC50.
target: Mitogen-activated protein kinase 10 (Homo sapiens, UniProt P53779); experiment: Dose response biochemical screening assay for inhibitors of c-Jun N-Terminal Kinase 3 (JNK3). [Related pubchem assays: 746 ]

Prompt: Given the compound COc1ccc(OC)c(C(=O)c2coc3ccc(O)cc23)c1 , what is its reported IC50?
Completion: > 93.1 µM (not active)

Prompt: And for O=C(CCCCCn1c(SCC(=O)c2ccccc2)nc2ccccc2c1=O)NCc1ccco1 ?
Completion: 38.9 µM (not active)

Prompt: Same again, this time with CCOc1ccc(C(=O)C2=C(O)C(=O)N(c3cc(C)on3)C2c2ccccc2OC)cc1 (centres undefined)
Completion: > 93.1 µM (not active)

Prompt: Try Cc1ccnc(NC(=O)CCCOc2cc(=O)n(C)c3ccccc23)c1 next.
Completion: 62.4 µM (not active)

* * *

Molecular target: Mannose-6-phosphate isomerase (Homo sapiens)
Sequence (P34949 whole entry): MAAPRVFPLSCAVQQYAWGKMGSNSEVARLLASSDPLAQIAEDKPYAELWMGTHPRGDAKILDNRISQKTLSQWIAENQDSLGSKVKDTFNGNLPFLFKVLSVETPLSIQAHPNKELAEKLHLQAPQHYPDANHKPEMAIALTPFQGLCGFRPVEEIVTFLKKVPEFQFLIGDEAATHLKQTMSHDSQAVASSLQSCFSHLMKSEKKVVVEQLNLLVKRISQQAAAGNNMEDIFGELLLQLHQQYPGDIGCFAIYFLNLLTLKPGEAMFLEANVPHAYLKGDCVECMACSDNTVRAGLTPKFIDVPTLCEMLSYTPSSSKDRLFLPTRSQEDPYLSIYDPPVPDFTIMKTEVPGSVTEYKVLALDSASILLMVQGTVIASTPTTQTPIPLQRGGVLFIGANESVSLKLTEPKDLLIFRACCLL
Experiment: human PMI inhibitors, high substrate, primary screen, biochemical, fluorescence intensity, high mannose 6-phosphate (AID 1220)
Calls of active or inactive are those of the source.
readoutLabel: IC50

Prompt: Dear colleague, I am looking for the recorded IC50 of the following compound: Oc1ccc2cc3c4cc(Br)ccc4nc-3oc2c1O
Completion: 30 µM (active)

Prompt: Next compound up: CCN1c2ccccc2N(C)C1(C)c1ccccc1 (stereo not given)
Completion: 13.7 µM (active)

Prompt: Same question, CN1C=C/C(=C\c2cc[n+](C)c3ccccc23)c2ccccc21 this time
Completion: > 50 µM (not active)

Prompt: Repeat with O=C(N/N=C/c1ccc(O)c(O)c1O)/C(=C/c1ccc([N+](=O)[O-])cc1)NC(=O)c1ccccc1
Completion: > 50 µM (not active)

Prompt: Likewise for CC(/C=C/c1ccco1)=N\NC(=O)CNc1ccc2ccccc2c1 ?
Completion: > 50 µM (not active)

* * *

biological target: RNA-binding protein pos-1 (Caenorhabditis elegans); assay: inhibitors of POS-1/mex-3 RNA binding, dose response, biochemical, fluorescence polarization (AID 1964);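 further: purified POS-1 fused to maltose binding protein made in E. coli; potency of compounds blocking POS-1 binding to fluorescent RNA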
Calls of active or inactive are those of the source.
EC50 values by entry

molecule	readoutLabel	result
CCCNS(=O)(=O)c1ccc(CCC(=O)NCc2ccc3c(c2)OCO3)cc1	EC50	> 300 µM (not active)

Prompt: What does the record list as EC50 for CCN(CC)c1ccc(/C=c2/sc3nnc(-c4ccccc4C)n3c2=O)cc1 ?
Completion: > 300 µM (not active)

Prompt: Now the same for O=C(O[C@@H]1Cc2c(O)cc(O)cc2O[C@@H]1c1cc(O)c(O)c(O)c1)c1cc(O)c(O)c(O)c1 [EPIGALOCATECHIN GALLATE]
Completion: 5.89 µM (inconclusive)

Prompt: Input Cc1ccc(/C=C2\C(=O)NC(=S)N(c3ccc(F)cc3)C2=O)o1
Completion: > 300 µM (not active)

Prompt: Same lookup for CN1C=C/C(=C\c2cc[n+](C)c3ccccc23)c2ccccc21 , please.
Completion: 65.7 µM (active)

Prompt: Try NC(=O)Cn1cc(C=C2C(=O)NC(=O)NC2=O)c2ccccc21 next.
Completion: > 300 µM (inconclusive)

Prompt: Proceed to Cc1ccc(S(=O)(=O)C(C#N)c2nc3ccccc3nc2N2CC(C)OC(C)C2)cc1C (stereo not drawn)
Completion: 4.67 µM (inconclusive)

Prompt: Consider next the molecule O=C(O)c1ccc2nc(-c3ccco3)c(-c3ccco3)nc2c1 in the same way.
Completion: 19.5 µM (inconclusive)
